Consider the following molecules; for each one, report its Km.
tested on: LPESG (Abz-LPESGK(Dnp)-CONH2); experiment: In vitro sortase kinetics HPLC assay, LPESG substrate; assay type: biochemical; conditions: Example 5 variants; substrate 4S (LPESG); read-out: Avg KM
Give the number; µM is assumed, so skip it.

Task: Quick one: Km of eSrtA(4S-6): round 6 consensus variant targeting LPESG (protein) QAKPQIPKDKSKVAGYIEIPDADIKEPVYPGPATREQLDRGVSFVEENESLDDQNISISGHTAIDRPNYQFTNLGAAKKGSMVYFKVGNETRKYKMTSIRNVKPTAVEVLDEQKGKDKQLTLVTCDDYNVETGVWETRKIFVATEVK ?
Output: 125

Task: Report Km for eSrtA(4S-3): round 3 LPESG clone: eSrtA + N98S A104T A118T F122S D124G K134R K173E K177E I182V (protein) QAKPQIPKDKSKVAGYIEIPDADIKEPVYPGPATREQLSRGVSFTEENESLDDQNISITGHTSIGRPNYQFTNLRAAKKGSMVYFKVGNETRKYKMTSIRNVKPTAVEVLDEQEGKDEQLTLVTCDDYNEETGVWETRKIFVATEVK please.
Output: 3330
